assay protocol: NOD1 signaling inhibitors, primary screen, cell-based, luminescence, uHTS (AID 1578);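 also: HEK-293T reporter cells stimulated with the NOD1 agonist gamma-tri-DAP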
run parameters: NOD1-driven NF-kB luciferase reporter cells, at 4 µM, active compounds read high
Among all 290,000 compounds or so, about 3,000 (1%) were called active. This excerpt belongs to a sample that is enriched for actives.
property name: inhibition (%)

                                    compound  meas_value
 0  Cc1ccc(C(=O)Nc2nc(-c3ccccc3)c(-c3ccccc3)o2)cc1        35.6
 1   CCCc1cc(=O)[nH]c(SCC(=O)NCCC2=CCCCC2)n1       -16.8
 2             O=CNCCc1nc2ccccc2n1CCc1ccccc1          15
 3               C=CCOc1ccccc1CNCc1ccc(F)cc1         -24
 4  COc1ccc(OC)c(C(=O)NC2CC(C)(C)Cc3c2cnn3-c2ccccc2)c1 (centres undefined)        53.9
 5              O=CNCc1nc2ccccc2n1CCc1ccccc1          66
 6     CC(C)NC(=O)CC(=O)N/N=C\c1ccccc1C(=O)O       -33.7
 7  O=S(=O)(c1ccc(S(=O)(=O)n2cnc3ccccc32)cc1)N1CCCCCC1         8.9
 8  CCOC(=O)c1cnc(N2CCN(c3ccccc3)CC2)[nH]c1=O         1.6
 9  COc1ccc(OC)c(C2=NS(=O)(=O)N(C)C(C(=O)N3CCC4(CC3)OCCO4)=C2)c1        -6.5
10  Cc1cc(/C=C2\SC(=Nc3ccc(F)cc3)NC2=O)c(C)n1-c1ccc(S(N)(=O)=O)cc1       -10.7
11  CN(Cc1ccccc1)c1nc(N)c([N+](=O)[O-])c(Nc2cccc(F)c2)n1       -10.7
12               O=C(N/N=C/c1cccnc1)C1CCCCC1       -16.2
13          Cn1cnc2cc(NC(=O)COc3ccccc3)ccc21       -63.1
14  COc1ccc(C(=O)NC2CC(C)(C)Cc3c2cnn3-c2ccccc2)cc1OC (centres undefined)         0.2
15  COc1cccc2c1OCC(C(=O)O)C2 (centres undefined)       -26.7
16  Cc1cc(C)cc(N(C(C)C(=O)NCCC2=CCCCC2)S(C)(=O)=O)c1 (centres undefined)          15
17  O=C1[C@H]2[C@@H](c3ccc(Cl)cc3)N3C(=O)N(c4cccc(Br)c4)C(=O)[C@@]3(Cc3ccc(Cl)cc3)[C@H]2C(=O)N1C1CCCCC1        45.6
18               c1ccc(NC2=NCCN2CC2CCCC2)cc1       -17.2
19           Cc1ccc(NC(=O)c2sc(C)nc2C)c(C)c1        -0.8
20                   O=C(C#Cc1ccccc1)c1ccco1        72.9
21  CCc1c(C)nc(SCC(=O)N2CCCCC2CC)[nH]c1=O (centres undefined)       -11.1
22  Cc1cc(=O)[nH]c(N/N=C/c2ccc(-c3ccc(F)cc3)o2)n1       -56.3
23      CCC(CC)=NNC(=O)c1ccccc1OCc1ccc(F)cc1       -13.1
24  COc1cc(C(=O)NC2CC(C)(C)Cc3c2cnn3-c2ccccc2)cc(OC)c1OC (centres undefined)       -14.3
25                    O=C(NCc1ccccc1)c1ccco1       -12.3
26  CCN(CC(=O)NC1CCS(=O)(=O)C1)S(=O)(=O)c1ccc(C)cc1C (centres undefined)         -12
27  CCc1c(O)nc(SCC(=O)Nc2ccccc2C)n(-c2ccc(C)cc2)c1=O       -22.6
28  O=C1[C@H]2[C@@H](c3ccc(F)cc3)N3C(=O)N(c4cccc(Br)c4)C(=O)[C@@]3(Cc3ccc(Cl)cc3)[C@H]2C(=O)N1C1CCCCC1       -14.3
29  COC(=O)c1ccccc1NC(=O)CN1CCN(Cc2ccccc2)CC1         1.4
30            O=C(CSCCSCC(=O)c1ccco1)c1ccco1       -26.9
31       COC(=O)[C@@H](NC(=O)NCc1cccs1)C(C)C         8.6
32  C/C(=N\N=C(/N)SC1CC(=O)N(c2ccc(Cl)cc2)C1=O)c1cccs1 (centres undefined)        -4.8
33    Cc1ccc2nsnc2c1S(=O)(=O)Nc1ccccc1C(=O)O       -10.2
34  O=C(Nc1nc(-c2ccccc2)c(-c2ccccc2)o1)c1ccc(F)cc1        97.4
35  COc1cccc2c1C(CO)N1C(C#N)C3CC(C(=O)O)C(C1C2)N3C (centres undefined)         102
36  Cc1cc(=O)oc2c(C)c(OCC(=O)N3CC[C@@]4(O)CCCC[C@H]4C3)ccc12       -30.1
37             O=CNCc1nc2ccccc2n1CCCc1ccccc1        -1.8
38      CC(=O)Nc1nc(-c2ccccc2)c(-c2ccccc2)o1        -5.3
39  C/C(=N\N=C(/N)SC1CC(=O)N(c2ccc(Br)cc2)C1=O)c1cccs1 (centres undefined)        87.7
40  Cc1ccc(NC(=O)CCC(=O)OCC(=O)c2ccc(Oc3ccc([N+](=O)[O-])cc3)cc2)cc1C          -7
41  CC1(C)C2CCC1(C)C(OC(=O)C[n+]1ccccc1N)C2 (centres undefined)       -14.7
42  O=C(CN1C(=O)NC2(CCCCCCC2)C1=O)NC1CCCc2ccccc21 (centres undefined)       -29.3
43  COc1ccc(/C(C)=N/NC(=O)c2ccc(NS(=O)(=O)c3cccs3)cc2)cc1        -9.8
